Published log10(IC50) for Estrogen receptor (Homo sapiens, UniProt P03372), assembled from different documents, is shown next.
Recorded IC50 (log10, nM)

COMPOUND	EXPERIMENTAL RESULT
CN(CCCc1ccc(Cl)cc1)c1nc(NCCc2ccc(O)cc2)nc(N2CCNCC2)n1	2.04
COc1cc(CNC(=O)[C@@]2(Cc3ccccc3)OC(=O)N([C@@H]3CCc4ccccc43)C2=O)cc(OC)c1	4.23
CCc1c(O)ccc2c1oc(=O)c1cc(Br)ccc12	3.74
O=c1c2c(O)cc(O)cc2ncn1-c1ccccc1	4.88

Give recorded log10(IC50) with Estrogen receptor (Homo sapiens, UniProt P03372) for the following compound: Oc1ccc(-c2[nH]c(C(F)(F)F)nc2-c2ccccc2)cc1
2.61

What would you report for O=C(c1ccc(N2CCN(C(=O)c3ccccc3O)CC2)cc1)c1c(-c2ccc(O)cc2)sc2cc(O)ccc12 ?
0.48

COc1cc(O)c(Br)c2cc(-c3ccc(O)c(F)c3)oc12 ?
2.53

Please give the result for CCCC1Oc2c(ccc(O)c2C)-c2c(C)cc(O)cc21 (stereo not given) too.
2.80

----------
Note to self: these compounds have IC50 reported for Estrogen receptor (Homo sapiens) in various publications.
Molecular target: Estrogen receptor (Homo sapiens)
Sequence (P03372 whole entry): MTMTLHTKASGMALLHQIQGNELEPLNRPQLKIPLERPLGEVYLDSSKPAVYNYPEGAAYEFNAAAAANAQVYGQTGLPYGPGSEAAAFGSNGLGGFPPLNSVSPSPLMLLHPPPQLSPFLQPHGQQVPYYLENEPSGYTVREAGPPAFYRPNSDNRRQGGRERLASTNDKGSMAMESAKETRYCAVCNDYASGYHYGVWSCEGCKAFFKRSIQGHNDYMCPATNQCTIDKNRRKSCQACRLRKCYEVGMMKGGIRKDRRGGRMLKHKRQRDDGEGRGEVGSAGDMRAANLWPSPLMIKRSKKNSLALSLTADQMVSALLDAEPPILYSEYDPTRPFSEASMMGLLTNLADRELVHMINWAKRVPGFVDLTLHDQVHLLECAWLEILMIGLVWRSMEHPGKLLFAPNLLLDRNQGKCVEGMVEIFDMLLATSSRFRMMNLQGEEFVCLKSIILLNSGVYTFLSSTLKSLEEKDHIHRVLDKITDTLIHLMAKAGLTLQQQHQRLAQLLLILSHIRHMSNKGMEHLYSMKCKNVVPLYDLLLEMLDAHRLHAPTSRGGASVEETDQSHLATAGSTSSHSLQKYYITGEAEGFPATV
The response must be a number in µM with no trailing unit.

// solved cases for IC50 follow
COMPOUND	IC50 [µM]
Cc1cc(O)c2cccc(-c3nc4ccc(O)cc4o3)c2c1	0.163
CN(C)CCOc1ccc(Cn2c3ccc(O)cc3c3sc4cc(O)ccc4c32)cc1	0.018
O=C(O)/C=C/c1ccc2c(C(=O)c3ccc(OCCN4CCCCC4)cc3)c(-c3ccc(O)cc3)sc2c1	0.082

Can you look up IC50 on Estrogen receptor (Homo sapiens) for CC(C)(F)CN1CCc2cc(O)ccc2C1c1ccc(OC2CN(CC(=O)NO)C2)cc1 (stereo not drawn) ?
0.0782

Record: CC#Cc1cc(-c2ccc(O)c(F)c2)cc2ccc(O)cc12
0.343

And what about the compound COc1cc(O)c(/C=C\C(C)(C)O)c2c1C(=O)CC(c1ccc(O)cc1)O2 (stereo not drawn) ?
1000

Moving on to the next compound: CN1CCCC1CCOc1ccc(/C(=C(/CCCO)c2ccccc2)c2ccc(Br)cc2)cc1.Cl (stereo not drawn)
2.97
